Target desc: human recombinant MAO-B (Homo sapiens)
Sequence (P27338 1-520): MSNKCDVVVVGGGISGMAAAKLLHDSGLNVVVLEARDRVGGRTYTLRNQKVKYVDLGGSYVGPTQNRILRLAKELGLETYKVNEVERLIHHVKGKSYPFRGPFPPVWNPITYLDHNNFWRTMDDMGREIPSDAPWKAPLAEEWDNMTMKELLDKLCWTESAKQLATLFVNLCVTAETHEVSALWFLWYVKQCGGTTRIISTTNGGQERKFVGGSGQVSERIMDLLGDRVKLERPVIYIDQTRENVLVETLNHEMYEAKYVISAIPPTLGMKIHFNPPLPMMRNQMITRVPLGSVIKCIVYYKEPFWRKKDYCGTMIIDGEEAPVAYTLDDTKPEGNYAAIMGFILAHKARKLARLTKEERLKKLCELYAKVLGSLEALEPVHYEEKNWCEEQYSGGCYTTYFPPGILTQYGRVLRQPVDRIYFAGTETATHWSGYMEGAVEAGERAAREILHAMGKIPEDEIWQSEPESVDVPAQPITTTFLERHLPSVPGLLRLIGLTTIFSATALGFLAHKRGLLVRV
Protocol: kynuramine oxidation deamination assay, MAO-B inhibition (IC50)
Stated conditions: recombinant human MAO-B; kynuramine 50 μM; mean ± S.D. of triplicate
Protocol: A fixed single concentration of kynuramine substrate and varying concentrations of the test inhibitor were used to determine the IC50 values. […] These concentrations of kynuramine were twice the apparent KM value for substrate binding. […] Formation of the enzyme product, 4-hydroxyquinoline, was measured fluorometrically using a SpectraMax M5 fluorescence plate reader (Molecular Devices, Sunnyvale, CA, USA) with excitation (320 nm) and emission (380 nm) wavelengths and the Soft Max Pro program. […]
For each record, check the reported IC50: if it is below 400 nM write Yes, else write No.

Incoming: Report whether reported IC50 is lower than 400 nM (strictly) for "COc1cc(O)c2c(=O)cc(-c3ccc(OC(C)C)cc3)oc2c1"
Outgoing: Yes

Incoming: For this compound, is IC50 lower than 400 nM? "CCCNc1ccc(-c2cc(=O)c3c(OC)cc(OC)cc3o2)cc1"
Outgoing: No

Incoming: Just wondering, is IC50 of "COc1cc(O)c2c(=O)cc(-c3ccc(NC(C)C)cc3)oc2c1" below 400 nM?
Outgoing: No

Incoming: In the record for "COc1cc(O)c(C(=O)/C=C/c2ccc(OCC3CC3)cc2)c(OC)c1" , is IC50 less than 400 nM?
Outgoing: No

Incoming: Does the reported IC50 of "COc1cc(O)c2c(=O)cc(-c3ccc(OCC(C)C)cc3)oc2c1" stay below 400 nM?
Outgoing: Yes

* * *

Target desc: human recombinant MAO-B (Homo sapiens)
Protocol: kynuramine oxidation deamination assay, MAO-B inhibition (IC50)
Stated conditions: recombinant human MAO-B; kynuramine 50 μM; mean ± S.D. of triplicate
// reported log10 of IC50 per item
Log10 applied to IC50; unit prior to transform: µM.

Molecule	Target desc	log10 of IC50
CCCOc1ccc(/C=C/C(=O)c2c(O)cc(OC)cc2OC)cc1	human recombinant MAO-B (Homo sapiens)	-0.40
COc1cc(OC)c2c(=O)cc(-c3ccc(OC(C)C)cc3)oc2c1	human recombinant MAO-B (Homo sapiens)	0.42
COc1cc(O)c(C(=O)/C=C/c2ccc(OC(C)C)cc2)c(OC)c1	human recombinant MAO-B (Homo sapiens)	-1.31
COc1ccc2c(c1)[nH]c1c(C)nccc12 [Harmine, reference compound]	human recombinant MAO-B (Homo sapiens)	1.59
CCCOc1ccc(-c2cc(=O)c3c(OC)cc(OC)cc3o2)cc1	human recombinant MAO-B (Homo sapiens)	0.23

Incoming: // query log10 of IC50 value for entry "COc1cc(OC)c2c(=O)cc(-c3ccc(Br)cc3)oc2c1"
Outgoing: 1.45

Incoming: Could you tell me which log10 of IC50 is on file for "CCCNc1ccc(-c2cc(=O)c3c(O)cc(OC)cc3o2)cc1" ?
Outgoing: 0.19

* * *

Target desc: human recombinant MAO-A (Homo sapiens, UniProt P21397)
Sequence (P21397 whole entry): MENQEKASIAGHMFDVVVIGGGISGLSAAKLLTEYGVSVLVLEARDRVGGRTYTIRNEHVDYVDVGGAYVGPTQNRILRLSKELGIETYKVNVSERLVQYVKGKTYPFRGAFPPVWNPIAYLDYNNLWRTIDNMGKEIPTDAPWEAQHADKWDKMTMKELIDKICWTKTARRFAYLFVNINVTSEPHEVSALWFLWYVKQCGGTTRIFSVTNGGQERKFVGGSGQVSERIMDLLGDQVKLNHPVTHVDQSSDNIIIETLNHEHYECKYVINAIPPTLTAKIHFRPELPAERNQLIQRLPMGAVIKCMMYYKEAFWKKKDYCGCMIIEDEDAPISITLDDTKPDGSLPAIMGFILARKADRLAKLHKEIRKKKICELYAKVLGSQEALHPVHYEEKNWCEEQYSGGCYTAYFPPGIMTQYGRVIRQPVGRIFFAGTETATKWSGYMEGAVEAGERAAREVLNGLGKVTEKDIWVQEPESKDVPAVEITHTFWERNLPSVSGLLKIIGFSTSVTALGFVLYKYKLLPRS
Protocol: kynuramine oxidation deamination assay, MAO-A inhibition (IC50)
Stated conditions: kynuramine 80 μM, mean ± S.D. of triplicate
Doc: threshold 40 µM (exclusive). Items with IC50 beneath it return True; others return False.

// known answers, use as guide
Smiles input	Target desc	Category
CCCOc1ccc(/C=C/C(=O)c2c(O)cc(OC)cc2OC)cc1	human recombinant MAO-A (Homo sapiens, UniProt P21397)	True
COc1cc(O)c(C(=O)/C=C/c2ccc(OCC(C)C)cc2)c(OC)c1	human recombinant MAO-A (Homo sapiens, UniProt P21397)	True
COc1cc(OC)c2c(=O)cc(-c3ccc(OCC4CC4)cc3)oc2c1	human recombinant MAO-A (Homo sapiens, UniProt P21397)	False
C#CCOc1ccc(/C=C/C(=O)c2c(O)cc(OC)cc2OC)cc1	human recombinant MAO-A (Homo sapiens, UniProt P21397)	True
COc1cc(OC)c2c(=O)cc(-c3ccc(NC(C)C)cc3)oc2c1	human recombinant MAO-A (Homo sapiens, UniProt P21397)	True
COc1cc(O)c2c(=O)cc(-c3ccc(OCC(C)C)cc3)oc2c1	human recombinant MAO-A (Homo sapiens, UniProt P21397)	False
CCCNc1ccc(-c2cc(=O)c3c(OC)cc(OC)cc3o2)cc1	human recombinant MAO-A (Homo sapiens, UniProt P21397)	False
COc1cc(OC)c2c(=O)cc(-c3ccc(Br)cc3)oc2c1	human recombinant MAO-A (Homo sapiens, UniProt P21397)	False
COc1cc(O)c2c(=O)cc(-c3ccc(OC(C)C)cc3)oc2c1	human recombinant MAO-A (Homo sapiens, UniProt P21397)	True
COc1cc(OC)c2c(=O)cc(-c3ccc(OCC(C)C)cc3)oc2c1	human recombinant MAO-A (Homo sapiens, UniProt P21397)	False

Incoming: Hi there! Is IC50 for "COc1ccc(-c2cc(=O)c3c(O)cc(O)cc3o2)cc1" below 40 µM, do you know?
Outgoing: True

Incoming: Determine whether this compound shows IC50 lower than 40 µM (ties excluded): "CCCNc1ccc(-c2cc(=O)c3c(O)cc(OC)cc3o2)cc1"
Outgoing: False

Incoming: API: query returns whether the compound falls strictly under 40 µM in IC50. Query: "COc1cc(O)c(C(=O)/C=C/c2ccc(Br)cc2)c(OC)c1"
Outgoing: True

Incoming: Given the entry "CCCOc1ccc(-c2cc(=O)c3c(OC)cc(OC)cc3o2)cc1" , would its reported IC50 be below 40 µM?
Outgoing: False

Incoming: Field: below-cutoff. Rule: recorded IC50 strictly less than 40 µM. Subject: "C#CCOc1ccc(-c2cc(=O)c3c(O)cc(OC)cc3o2)cc1"
Outgoing: False

Incoming: Does "COc1cc(O)c(C(=O)/C=C/c2ccc(OC(C)C)cc2)c(OC)c1" have IC50 strictly under 40 µM?
Outgoing: True

Incoming: Consider "COc1cc(OC)c2c(=O)cc(-c3ccc(OC(C)C)cc3)oc2c1" . Does its IC50 lie strictly below 40 µM?
Outgoing: False

Incoming: Determine whether this compound shows IC50 lower than 40 µM (ties excluded): "CCCOc1ccc(-c2cc(=O)c3c(O)cc(OC)cc3o2)cc1"
Outgoing: False

Incoming: Input "C#CCOc1ccc(-c2cc(=O)c3c(OC)cc(OC)cc3o2)cc1" ; condition: IC50 strictly below 40 µM. Does it hold?
Outgoing: False

Incoming: API: query returns whether the compound falls strictly under 40 µM in IC50. Query: "COc1cc(O)c(C(=O)/C=C/c2ccc(OCC3CC3)cc2)c(OC)c1"
Outgoing: True

* * *

Target desc: human recombinant MAO-B (Homo sapiens, UniProt P27338)
Protocol: kynuramine oxidation deamination assay, MAO-B inhibition (IC50)
Assay type: biochemical
Design: purchased BD Biosciences (Bedford, MA, USA)
Procedure: A fixed single concentration of kynuramine substrate and varying concentrations of the test inhibitor were used to determine the IC50 values. […] These concentrations of kynuramine were twice the apparent KM value for substrate binding. […] Formation of the enzyme product, 4-hydroxyquinoline, was measured fluorometrically using a SpectraMax M5 fluorescence plate reader (Molecular Devices, Sunnyvale, CA, USA) with excitation (320 nm) and emission (380 nm) wavelengths and the Soft Max Pro program. […]
selectivity towards MAO-B compared with MAO-A values for the compounds below.
Express it in fold; write the number only.

Compound	Measured
CCCOc1ccc(-c2cc(=O)c3c(O)cc(OC)cc3o2)cc1 [Compound 1c]	1478

Incoming: Given the entry COc1cc(O)c2c(=O)cc(-c3ccc(OC(C)C)cc3)oc2c1 [Compound 2c] , report its measured selectivity towards MAO-B compared with MAO-A.
Outgoing: 1921

Incoming: Could you tell me which selectivity towards MAO-B compared with MAO-A is on file for C#CCOc1ccc(-c2cc(=O)c3c(O)cc(OC)cc3o2)cc1 [Compound 4c] ?
Outgoing: 1279
